# target_under_test: T1, cynomolgus CD3 (cynomolgus (Macaca fascicularis), UniProt Q95LI5 22-198; Q95LI8 22-171; Q95LI7 23-181)
# T1 construct: whole, on cells; composition of the 'mix' not defined; also called cynoCD3
# assay_protocol: FACS on 293T-cynoCD3mix cells
Assignment: determine reported pEC50 for the given binders.
Just the number, please; pEC50 means minus log10 of the concentration in mol/L.

Item: hu147E2-L1H2 (antibody, V domains shown, humanized 147E11E2; also called hu14E2-L1H2) VH: EVQLVQSGAEVKKPGSSVKVSCKASGYTFTSYWMHWVRQAPGQGLEWMGNINPSNGATNYNEKFKSRVTITADKSTSTAYMELSSLRSEDTAVYYCARDRSSQYYFDYWGQGTTVTVSS VL: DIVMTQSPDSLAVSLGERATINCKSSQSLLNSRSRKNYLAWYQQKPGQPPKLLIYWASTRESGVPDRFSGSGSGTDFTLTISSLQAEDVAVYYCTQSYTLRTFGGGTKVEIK | pEC50: 8.70

Per the record, hu147E2-L2H2 (antibody, V domains shown, humanized 147E11E2; also called hu14E2-L2H2) VH: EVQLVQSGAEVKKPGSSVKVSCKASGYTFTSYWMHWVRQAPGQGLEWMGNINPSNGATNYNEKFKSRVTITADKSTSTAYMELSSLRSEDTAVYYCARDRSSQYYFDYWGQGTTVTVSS VL: DIVMTQSPDSLAVSLGERATINCKSSQSLLNSRSRKNYLAWYQQKPGQSPKLLIYWASTRESGVPDRFSGSGSGTDFTLTISSLQAEDVAVYYCTQSYTLRTFGGGTKVEIK has pEC50 of 8.79

Entry hu147E2-L1H3a (antibody, V domains shown, humanized 147E11E2 with N55Q in HCDR2 (deamidation site removed); also called hu14E2-L1H3a) VH: EVQLVQSGAEVKKPGSSVKVSCKASGYTFTSYWMHWVRQAPGQGLEWMGNINPSQGATNYNEKFKSRVTLTVDKSTSTAYMELSSLRSEDTAVYYCARDRSSQYYFDYWGQGTTVTVSS VL: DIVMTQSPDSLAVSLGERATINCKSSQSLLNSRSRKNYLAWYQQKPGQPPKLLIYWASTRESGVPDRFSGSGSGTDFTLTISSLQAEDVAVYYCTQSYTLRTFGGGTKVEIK ; pEC50 = 8.78

Input hu147E2-L2H3 (antibody, V domains shown, humanized 147E11E2; also called hu14E2-L2H3) VH: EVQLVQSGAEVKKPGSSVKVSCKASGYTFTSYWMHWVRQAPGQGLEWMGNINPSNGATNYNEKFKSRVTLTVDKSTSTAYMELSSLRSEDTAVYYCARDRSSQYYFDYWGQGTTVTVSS VL: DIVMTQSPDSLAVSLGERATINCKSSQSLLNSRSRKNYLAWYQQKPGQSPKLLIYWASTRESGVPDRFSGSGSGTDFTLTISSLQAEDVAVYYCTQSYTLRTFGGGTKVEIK . Output pEC50: 8.73

Item: hu147E2-L1H3b (antibody, V domains shown, humanized 147E11E2 with N55S in HCDR2 (deamidation site removed); also called hu14E2-L1H3b) VH: EVQLVQSGAEVKKPGSSVKVSCKASGYTFTSYWMHWVRQAPGQGLEWMGNINPSSGATNYNEKFKSRVTLTVDKSTSTAYMELSSLRSEDTAVYYCARDRSSQYYFDYWGQGTTVTVSS VL: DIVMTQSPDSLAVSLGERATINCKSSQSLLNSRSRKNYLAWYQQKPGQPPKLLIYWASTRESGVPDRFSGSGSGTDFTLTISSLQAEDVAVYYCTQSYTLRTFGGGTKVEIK | pEC50: 8.77

Record hu147E2-L2H4 (antibody, V domains shown, humanized 147E11E2; also called hu14E2-L2H4) VH: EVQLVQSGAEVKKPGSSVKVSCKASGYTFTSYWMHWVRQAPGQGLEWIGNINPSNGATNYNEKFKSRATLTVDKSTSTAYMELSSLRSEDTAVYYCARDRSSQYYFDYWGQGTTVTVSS VL: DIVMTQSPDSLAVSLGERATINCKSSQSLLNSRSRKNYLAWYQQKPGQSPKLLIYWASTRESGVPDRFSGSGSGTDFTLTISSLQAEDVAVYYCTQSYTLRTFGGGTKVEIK , field pEC50: 8.69

Values were extracted from patent US20250223358A1.
